Assay: qHTS profiling of the MIPE4 collection as inhibitors of Plasmodium falciparum (DD2) proliferation (Rep 2) (AID 743346)
Details: P. falciparum Dd2 in erythrocytes, SYBR Green DNA, 72 h; at 28.5 µM unless noted
measured_metric: parasite growth, % of control (lower = inhibition) (%)
The reply should contain only the number, in %.

Data request: Request the reported parasite growth, % of control (lower = inhibition) associated with CC(C)C(=O)Nc1ccc([N+](=O)[O-])c(C(F)(F)F)c1
Data returned: 69.2

Data request: Quick one: CCN(C)C(=O)Oc1cccc([C@H](C)N(C)C)c1
Data returned: 69.6

Data request: # iterate: CNC(=O)N1N=C(c2ccc(N)cc2)c2cc3c(cc2CC1C)OCO3 (stereo not given)
Data returned: 67.9

Data request: Same question, COc1cc2c(c(OC)c1OC)-c1ccc(OC)c(=O)cc1[C@@H](NC(C)=O)CC2 this time
Data returned: 42.5

###

I'd appreciate it if you could supply activity change, negative = inhibition values for the items below.
Assay: qHTS Assay for Lipid Storage Modulators (AID 1519); note: % is set by controls: 0 for no effect and ±100 for the full control effect
Settings: Drosophila S3 cells, BODIPY lipid droplet/cell ratio, laser cytometry; at 57.5 µM (top of the series); cells loaded with oleic acid
Records with an inconclusive call do not appear.
Kindly provide the numeric value in % only, without the unit symbol.

Data request: Which measured activity change, negative = inhibition value corresponds to Oc1cccc2cccnc12 ?
Data returned: 3.44

Data request: Try CC(C)=CC1C(C(=O)OCc2cccc(Oc3ccccc3)c2)C1(C)C (stereo not given) next.
Data returned: 8.71

Data request: Query CN(C)CCN(C)CCc1ccc(Cl)c(Cl)c1 next
Data returned: -1.09

Data request: Now consider CC(=O)[C@H]1CC[C@H]2[C@@H]3CC[C@H]4C[C@H](O)CC[C@]4(C)[C@H]3C(=O)C[C@]12C and answer again.
Data returned: -2.01

Data request: Please give the result for c1ccc(C2CC2)c(OCC2=NCCN2)c1 too.
Data returned: 8.25

###

Field: parasite growth, % of control (lower = inhibition). Provide a value for each of the compounds that follow.
Assay: qHTS profiling of the MIPE4 collection as inhibitors of Plasmodium falciparum (DD2) proliferation (Rep 2) (AID 743346)
Details: P. falciparum Dd2 in erythrocytes, SYBR Green DNA, 72 h; at 28.5 µM unless noted
Write it as a number; the unit % goes unstated.

Data request: Using the record for OC(Cn1cncn1)(Cn1cncn1)c1ccc(F)cc1F , report its parasite growth, % of control (lower = inhibition).
Data returned: 88.1

Data request: What do we get for O=c1[nH]c2ccccc2n1CCCN1CCC(n2c(=O)[nH]c3cc(Cl)ccc32)CC1 ?
Data returned: 31.2

Data request: Field entry: C[C@@H]1[C@@H](C(=O)C[C@H]2O[C@@H]3O[C@]4(C)CC[C@@H]5[C@H](C)CC[C@@H]([C@H]2C)[C@@]35OO4)O[C@@H]2O[C@]3(C)CC[C@H]4[C@H](C)CC[C@@H]1[C@@]24OO3
Data returned: 8.22

Data request: Please do the same for CNC(=O)c1ccc(N2C(=S)N(c3ccc(C#N)c(C(F)(F)F)c3)C(=O)C23CCC3)cc1F as well.
Data returned: 45.4

###

Experiment: Cell Viability - LYMP2-009 (AID 968);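 note: cells exposed to compound for 24 h at 37 °C; nearly all actives have a fitted effect of over 55% in size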
Conditions: LYMP2-009 lymphoblastoid cell viability; series mostly up to 92.2 µM
Results filed as inconclusive are left out. Calls of active or inactive are those of the source. The call rests on the fitted dose curve; in most records, active means well fitted cell-killing curve with a large enough effect; inconclusive means small, poorly fitted or top-dose-only effect; inactive means flat fitted curve, though single readings scatter.
Pick one and only one: class 1 for active, class 0 for inactive

Data request: Outcome? CC(COc1ccccc1)N(CCCl)Cc1ccccc1 (centres undefined)
Data returned: class 1

Data request: What about OCCOc1ccccc1 ?
Data returned: class 0

Data request: Follow-up item: N[C@@H](Cc1ccc(N(CCCl)CCCl)cc1)C(=O)O
Data returned: class 1

Data request: Continue with Oc1ccc(Cl)cc1Cc1ccccc1
Data returned: class 0

Data request: CCOP(=S)(OCC)Oc1cc(C)nc(C(C)C)n1 , same question.
Data returned: class 0

Data request: Ok, now CNCC(O)c1ccc(O)cc1 (centres undefined)
Data returned: class 0

Data request: And Oc1ccccc1-c1ccccc1 ?
Data returned: class 0

Data request: Again, but for c1ccc2c(c1)Nc1ccccc1S2
Data returned: class 0

Data request: Same again, this time with NCC(O)c1ccc(O)cc1 (centres undefined)
Data returned: class 0
